# measured_on: recombinant human Meningioma Expressed Antigen 5 (MGEA5), also referred to as O-GlcNAcase (OGA) (Homo sapiens)
# Construct: Full length OGA enzyme was purchased at OriGene (cat #TP322411); purchased OriGene TP322411
# Sequence (O60502 1-916): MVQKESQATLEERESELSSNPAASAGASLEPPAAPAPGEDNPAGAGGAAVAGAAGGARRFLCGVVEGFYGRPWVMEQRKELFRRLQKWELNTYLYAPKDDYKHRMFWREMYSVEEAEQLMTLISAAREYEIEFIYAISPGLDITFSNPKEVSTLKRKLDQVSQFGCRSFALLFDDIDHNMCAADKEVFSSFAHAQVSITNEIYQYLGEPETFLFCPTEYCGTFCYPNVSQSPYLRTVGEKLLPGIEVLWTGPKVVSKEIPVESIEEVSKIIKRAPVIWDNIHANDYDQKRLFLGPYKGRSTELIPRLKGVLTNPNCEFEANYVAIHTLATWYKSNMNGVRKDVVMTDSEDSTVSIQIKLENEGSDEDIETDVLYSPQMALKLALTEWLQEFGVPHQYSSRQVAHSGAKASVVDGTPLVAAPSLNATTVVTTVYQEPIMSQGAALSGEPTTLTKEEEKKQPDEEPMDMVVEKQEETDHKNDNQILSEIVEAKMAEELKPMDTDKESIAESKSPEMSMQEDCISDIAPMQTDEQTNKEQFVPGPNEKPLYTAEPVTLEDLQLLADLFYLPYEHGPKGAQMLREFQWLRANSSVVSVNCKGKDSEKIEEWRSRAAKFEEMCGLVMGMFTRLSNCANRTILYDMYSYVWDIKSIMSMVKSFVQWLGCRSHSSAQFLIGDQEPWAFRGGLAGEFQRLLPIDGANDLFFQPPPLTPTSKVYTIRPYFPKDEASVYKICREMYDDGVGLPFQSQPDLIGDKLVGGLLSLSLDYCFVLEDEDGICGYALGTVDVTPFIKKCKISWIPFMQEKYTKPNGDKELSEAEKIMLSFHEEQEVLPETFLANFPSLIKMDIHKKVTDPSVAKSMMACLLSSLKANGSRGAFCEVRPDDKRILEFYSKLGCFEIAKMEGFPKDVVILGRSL
# test: OGA biochemical assay (inhibition of FM-GlcNAc hydrolysis, fluorescence)
# recorded_conditions: read-out: Enzymatic hOGA, pIC50 (converted)
recorded_metric: IC50 (nM)

compound	units	value
CC(c1ccc2c(n1)OCCO2)N1CCC(Oc2ccc(C#N)nc2)CC1 (centres unmarked) [Compound 150]	nM	79.4
Cc1ccc(OC2CCN(C(C)c3nc4c(cc3F)OCCO4)CC2)nc1C (centres unmarked) [Compound 156]	nM	20
CC(c1ccc2c(n1)OCCO2)N1CCC(Oc2cc[nH]c(=O)c2)CC1 (centres unmarked) [Compound 93]	nM	251
Cc1cc(OC2CCN(C(C)c3ccc4c(n3)OCCO4)CC2)cc(C(F)(F)F)n1 (centres unmarked) [Compound 17]	nM	39.8
CC(c1ccc2c(n1)OCCO2)N1CCC(Oc2cnc(C3CCC3)nc2)CC1 (centres unmarked) [Compound 163]	nM	126
CC(c1nc2c(cc1F)OCCO2)N1CCC(Oc2ccc(C(F)(F)F)nn2)CC1 (centres unmarked) [Compound 39]	nM	20
COc1ccc(OC2CCN(C(C)c3ccc4c(n3)OCCO4)CC2)nc1 (centres unmarked) [Compound 99]	nM	158
Cc1cc(OC2CCN(C(C)c3ccc4c(n3)OCCO4)CC2)ncc1C#N (centres unmarked) [Compound 101]	nM	100
CC(c1ccc2c(n1)OCCO2)N1CCC(Oc2ccc(F)cn2)CC1 (centres unmarked) [Compound 115]	nM	200
Cc1ccc(OC2CCN(C(C)c3nc4c(cc3F)OCCO4)CC2)cn1 (centres unmarked) [Compound 94]	nM	10
Cc1ncc(OC2CCN(C(C)c3nc4c(cc3F)CCO4)CC2)cn1 (centres unmarked) [Compound 95]	nM	5.01
Cc1cc(OC2CCN([C@H](C)c3nc4c(cc3F)OCCO4)CC2)cc(C)n1 (single isomer, unassigned) [Compound 148]	nM	6.31
Cc1cc(OC2CCN(C(C)c3nc4c(cc3F)OCCO4)CC2)cnc1C (centres unmarked) [Compound 166]	nM	10
Cc1cc(COC2CCN(C(C)c3ccc4c(n3)OCC4)CC2)cc(C)n1 (centres unmarked) [Compound 154]	nM	39.8
CC(c1ccc2c(n1)OCCO2)N1CCC(Oc2cncc(F)c2)CC1 (centres unmarked) [Compound 74]	nM	100
C[C@@H](c1ccc2c(n1)OCCO2)N1CCC(Oc2ccc(C#N)nn2)CC1 [Compound 107]	nM	158
CC(c1nc2c(cc1F)OCCO2)N1CCC(Oc2ccc(C#N)cn2)CC1 (centres unmarked) [Compound 49]	nM	20
CC(c1ccc2c(n1)OCCO2)N1CCC(Oc2ccncc2C#N)CC1 (centres unmarked) [Compound 104]	nM	631
Cc1ncccc1OC1CCN(C(C)c2ccc3c(n2)OCCO3)CC1 (centres unmarked) [Compound 116]	nM	126
Cc1cc(C)nc(OC2CCN(C(C)c3ccc4c(n3)OCCO4)CC2)c1 (centres unmarked) [Compound 71]	nM	126
Cc1cc(COC2CCN(C(C)c3nc4c(cc3F)OCCO4)CC2)cc(C)n1 (centres unmarked) [Compound 159]	nM	12.6
CC(c1ccc2c(n1)OCCO2)N1CCC(Oc2ncccc2C#N)CC1 (centres unmarked) [Compound 50]	nM	1000
Cc1nccnc1OC1CCN(C(C)c2nc3c(cc2F)OCCO3)CC1 (centres unmarked) [Compound 111]	nM	50.1
CC(c1ccc2c(n1)OCCO2)N1CCC(Oc2cnc(Cl)nc2)CC1 (centres unmarked) [Compound 67]	nM	126
Cc1cc(OC2CCN([C@@H](C)c3nc4nc(C)sc4cc3F)CC2)cc(C)n1 (single isomer, unassigned) [Compound 83]	nM	5.01
Cc1ccc(OC2CCN(C(C)c3ccc4c(c3)OCO4)CC2)cn1.Cl (centres unmarked) [Compound 31]	nM	794
Cc1cc(OC2CCN(C(C)c3ccc4c(n3)OCCO4)CC2)cc(C(C)C)n1 (centres unmarked) [Compound 130]	nM	39.8
CC(c1ccc2c(n1)OCCO2)N1CCC(Oc2ccc(OC(F)(F)F)cn2)CC1 (centres unmarked) [Compound 96]	nM	63.1
Cc1cc(OC2CCN(C(C)c3ccc4sc(C)nc4n3)CC2)c(Cl)c(C)n1 (centres unmarked) [Compound 27]	nM	100
Cc1cc(OC2CCN(C(C)c3ccc4c(n3)OCCO4)CC2)ccn1 (centres unmarked) [Compound 45]	nM	100
COc1cc(OC2CCN(C(C)c3ccc4c(n3)OCCO4)CC2)cc(C)n1 (single isomer, unassigned) [Compound 53]	nM	7940
Cc1cnc(C)c(OC2CCN(C(C)c3nc4c(cc3F)OCCO4)CC2)n1 (centres unmarked) [Compound 87]	nM	15.8
CNC(=O)c1ccc(OC2CCN(C(C)c3ccc4c(n3)OCCO4)CC2)cn1 (centres unmarked) [Compound 122]	nM	79.4
Cc1cc(OC2(CF)CCN(C(C)c3ccc4c(n3)OCCO4)CC2)cc(C)n1 (centres unmarked) [Compound 132]	nM	6310
COc1cnccc1OC1CCN(C(C)c2ccc3c(n2)OCCO3)CC1 (centres unmarked) [Compound 98]	nM	200

----------
# measured_on: OGA (Homo sapiens, UniProt O60502)
# Construct: HEK293 cells inducible for P301L mutant human Tau (isoform 2N4R) were established at Janssen; endogenous in cells; host or cells: HEK293 cells inducible for P301L mutant human Tau (2N4R)
# Sequence (O60502 1-916): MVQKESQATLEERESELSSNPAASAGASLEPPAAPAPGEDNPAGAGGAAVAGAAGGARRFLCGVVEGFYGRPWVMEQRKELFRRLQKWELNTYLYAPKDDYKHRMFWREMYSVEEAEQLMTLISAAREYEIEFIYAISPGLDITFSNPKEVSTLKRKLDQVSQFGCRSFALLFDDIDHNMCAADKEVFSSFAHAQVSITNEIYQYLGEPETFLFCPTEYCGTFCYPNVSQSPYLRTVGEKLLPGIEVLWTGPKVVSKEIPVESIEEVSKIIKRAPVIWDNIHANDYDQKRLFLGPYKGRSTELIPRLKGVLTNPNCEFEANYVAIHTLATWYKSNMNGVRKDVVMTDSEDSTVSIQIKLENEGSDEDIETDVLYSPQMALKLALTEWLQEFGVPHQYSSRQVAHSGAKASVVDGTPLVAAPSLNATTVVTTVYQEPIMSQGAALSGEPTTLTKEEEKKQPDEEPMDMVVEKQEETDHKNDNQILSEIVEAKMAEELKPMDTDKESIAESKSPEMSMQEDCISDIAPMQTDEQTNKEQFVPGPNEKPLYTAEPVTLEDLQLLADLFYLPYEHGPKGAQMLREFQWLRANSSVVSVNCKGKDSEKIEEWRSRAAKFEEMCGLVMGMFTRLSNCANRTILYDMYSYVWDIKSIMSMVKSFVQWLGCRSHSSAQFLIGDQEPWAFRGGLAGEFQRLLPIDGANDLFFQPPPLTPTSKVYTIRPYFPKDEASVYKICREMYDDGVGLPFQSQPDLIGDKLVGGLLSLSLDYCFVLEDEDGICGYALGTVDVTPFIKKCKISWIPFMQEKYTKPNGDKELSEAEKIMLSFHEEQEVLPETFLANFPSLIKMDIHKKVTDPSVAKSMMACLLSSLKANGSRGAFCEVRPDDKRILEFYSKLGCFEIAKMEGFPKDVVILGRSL
# test: OGA cellular assay (ICC detection of O-GlcNAcylated proteins in HEK293 cells inducible for P301L mutant human Tau)
# Type: cell-based
# recorded_conditions: HEK293 cells inducible for P301L mutant human Tau, 6 hours incubation; read-out: Cellular hOGA; pEC50 (converted)
EC50 values by entry

molecule	EC50
Cc1cc(COC2CCN(C(C)c3nc4nc(C)sc4cc3F)CC2)cc(C)n1 (centres unmarked)	39.8 nM
CC(c1ccc2c(n1)OCCO2)N1CCC(Oc2cnc(C3CCC3)nc2)CC1 (centres unmarked)	> 1000 nM
Cc1cc(OC2CCN([C@H](C)c3nc4c(cc3F)CCO4)CC2)cc(C)n1 (single isomer, unassigned) [Compound 144]	10 nM
Cc1cnnc(OC2CCN(C(C)c3ccc4c(n3)OCCO4)CC2)c1 (centres unmarked)	> 1000 nM
Cc1ncc(OC2CCN(C(C)c3nc4c(cc3F)OCCO4)CC2)nc1C (centres unmarked)	100 nM
Cc1cc(OC2CCN([C@H](C)c3ccc4c(n3)OCCO4)CC2)cc(C(F)(F)F)n1 (single isomer, unassigned)	> 1000 nM
Cc1cc(OC2CCN([C@@H](C)c3nc4c(cc3F)CCO4)CC2)cc(C)n1 (single isomer, unassigned)	> 1000 nM
Cc1cc(OC2CCN([C@H](C)c3nc4nc(C)sc4cc3F)CC2)cc(C)n1 (single isomer, unassigned)	> 1000 nM
